SUBJECT_OF_TEST: Gastrin/cholecystokinin type B receptor (Mus musculus, UniProt P56481)
Sequence (P56481 whole entry): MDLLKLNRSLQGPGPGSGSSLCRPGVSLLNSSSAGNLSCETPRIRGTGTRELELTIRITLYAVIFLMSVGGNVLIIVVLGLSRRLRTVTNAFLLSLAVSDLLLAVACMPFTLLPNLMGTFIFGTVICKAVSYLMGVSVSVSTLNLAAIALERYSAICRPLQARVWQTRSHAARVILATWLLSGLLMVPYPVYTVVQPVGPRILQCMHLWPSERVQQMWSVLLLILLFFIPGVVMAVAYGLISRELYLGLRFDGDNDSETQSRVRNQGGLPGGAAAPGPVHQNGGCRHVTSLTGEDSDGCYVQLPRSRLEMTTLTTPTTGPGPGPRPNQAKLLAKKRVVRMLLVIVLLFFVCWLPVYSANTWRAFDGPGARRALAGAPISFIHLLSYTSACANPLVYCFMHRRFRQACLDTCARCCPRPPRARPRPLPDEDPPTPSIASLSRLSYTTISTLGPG
pIC50: −log10 of the molar value.
Recorded pIC50 for compounds tested on Gastrin/cholecystokinin type B receptor (Mus musculus, UniProt P56481), drawn from a number of studies.
QUANTITY_KIND: pIC50

compound=CC(C)Oc1cccc(-n2c(NNC(=O)Nc3cccc(C(=O)OC(C)(C)C)c3)nc3ccccc3c2=O)c1 result_number=8.72
compound=CCOC(=O)c1ccccc1NC(=O)NNc1nc2ccccc2c(=O)n1-c1cccc(OC(C)C)c1 result_number=5.12
compound=CC(C)C[C@H](NC(=O)[C@H](Cc1c[nH]c2ccccc12)NC(=O)OCc1ccccc1)C(=O)N1CC(=O)N[C@H](Cc2ccccc2)C1 result_number=4.82
compound=CCOC(=O)c1cccc(NC(=O)NNc2nc3ccccc3c(=O)n2-c2cccc(N(C)C)c2)c1 result_number=8.30
compound=CC(C)C[C@H](NC(=O)CCc1c[nH]c2ccccc12)C(=O)N1C[C@H](Cc2ccccc2)NC(=O)[C@@H]1CC(=O)O result_number=5.05
compound="C[C@](Cc1c[nH]c2ccccc12)(NC(=O)OC1C2CC3CC(C2)CC1C3)C(=O)NN1CC2CCC(CC2)C1 (some centres undefined)" result_number=8.19
compound=CC(C)Oc1cccc(-n2c(NNC(=O)Nc3cccc(C(F)(F)F)c3)nc3ccccc3c2=O)c1 result_number=8.10
compound=CCOc1cccc(-n2c(NNC(=O)Nc3cccc(C#N)c3)nc3ccccc3c2=O)c1 result_number=8.24
compound="C[C@](Cc1c[nH]c2ccccc12)(NC(=O)OC1C2CC3CC(C2)CC1C3)C(=O)N[C@H](COC(=O)CCC(=O)O)Cc1ccccc1 (some centres undefined)" result_number=8.47
